Recorded PBMC pSTAT3 IC50 by entry
- target-or-test-system: T1, interleukin-23 receptor (IL-23R), Q5VWK5
- T1 chain: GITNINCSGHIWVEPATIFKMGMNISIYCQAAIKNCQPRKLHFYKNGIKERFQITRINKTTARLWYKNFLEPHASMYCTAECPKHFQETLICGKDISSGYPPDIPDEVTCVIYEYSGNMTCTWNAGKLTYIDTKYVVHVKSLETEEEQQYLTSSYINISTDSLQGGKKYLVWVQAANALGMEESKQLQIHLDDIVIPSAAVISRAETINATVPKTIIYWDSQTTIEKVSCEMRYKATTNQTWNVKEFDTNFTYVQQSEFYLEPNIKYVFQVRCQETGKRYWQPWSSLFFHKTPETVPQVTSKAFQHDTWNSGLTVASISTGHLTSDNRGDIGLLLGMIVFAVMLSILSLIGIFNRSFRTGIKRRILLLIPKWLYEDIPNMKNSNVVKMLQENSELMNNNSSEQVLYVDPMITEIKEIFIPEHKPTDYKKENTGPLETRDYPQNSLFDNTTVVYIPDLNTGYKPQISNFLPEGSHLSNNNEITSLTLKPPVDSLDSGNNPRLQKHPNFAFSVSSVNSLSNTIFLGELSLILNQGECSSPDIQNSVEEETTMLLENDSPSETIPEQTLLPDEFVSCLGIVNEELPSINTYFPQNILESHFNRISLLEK
- assay-procedure: cell-based or functional assay
Positions of bridges follow the written chain, without caps; N, C: chain ends. Non-standard residues stand in square brackets, D forms with d. No end group written: not given here. Trp(7-Me) = Cc1cccc2c(C[C@H](N)C(=O)O)c[nH]c12; 3Pal = N[C@@H](Cc1cccnc1)C(=O)O; Lipidated = not defined here; Pen = CC(C)(S)[C@H](N)C(=O)O; Thp = NC1(C(=O)O)CCOCC1; Sar = CNCC(=O)O

binder	result
R[Pen]NT[Trp(7-Me)]K(Ac)[Pen][2‑amino‑3‑(4-(2-aminoethoxy)phenyl)propanoic acid][2‑amino‑3‑(6-hydroxynaphthalen-2-yl)propanoic acid][Thp]EN[3Pal][Sar]K (disulfide 2-7 (inferred); not fully specified (residue 15); ends not checked; also: K15: lipidated lysine, lipid not given here) [SEQ ID NO: 92]	< 0.1 nM

Record R[Pen]NT[Trp(7-Me)]K(Ac)[Pen][2‑amino‑3‑(4-(2-aminoethoxy)phenyl)propanoic acid][2‑amino‑3‑(6-hydroxynaphthalen-2-yl)propanoic acid][Thp]EN[3Pal][Sar]K(Lipidated) (disulfide 2-7 (inferred); ends not checked; also: K15: lipidated lysine, lipid not given here) [SEQ ID NO: 191] , field PBMC pSTAT3 IC50: < 1 nM
